# Target desc: hSFRP-1 (Homo sapiens, UniProt Q8N474)
# Construct: expressed in transfected cells; host or cells: U2OS osteosarcoma cells (ATCC, HTB 96), transient co-transfection with Wnt 3, Wnt3A or Wnt 1, 16x TCF-tk-Luciferase reporter and CMV-beta-gal
# Sequence (Q8N474 32-314): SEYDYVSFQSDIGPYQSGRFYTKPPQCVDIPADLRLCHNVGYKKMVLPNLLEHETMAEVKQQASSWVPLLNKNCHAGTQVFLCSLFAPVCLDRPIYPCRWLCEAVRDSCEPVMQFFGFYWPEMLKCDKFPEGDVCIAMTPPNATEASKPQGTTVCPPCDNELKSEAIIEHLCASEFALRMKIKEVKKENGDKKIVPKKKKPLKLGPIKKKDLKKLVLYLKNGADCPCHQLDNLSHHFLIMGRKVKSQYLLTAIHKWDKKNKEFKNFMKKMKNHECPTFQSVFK
# Experiment summary: Cell-Based Assay for In Vitro Measurement of SFRP-1/SARP2 Antagonist Activity (U2OS cells, 16x TCF-tk-Luciferase reporter, Wnt + hSFRP-1 co-transfection)
# Condition summary: initial single dose screening at 10 μM, luciferase reporter activity, fold induction over SFRP-1 control
Property: fold induction at 10 µM

Answered cases to consult:
• COC(=O)c1cc(-c2ccccc2)sc1NC(=O)CC1SC(=N)NC1=O (centres unmarked) [Example 56] = 0.9
• COC(=O)c1ccsc1NC(=O)CC1SC(=N)NC1=O (centres unmarked) [Example 34] = 1.2
• CCOC(=O)c1c(NC(=O)CC2SC(=N)NC2=O)sc2c1CCCCC2 (centres unmarked) [Example 36] = 1.5

1: N=C1NC(=O)C(CC(=O)NCc2ccc(C(F)(F)F)cc2)S1 (centres unmarked) [Example 12]
2: CCOC(=O)c1c(NC(=O)CC2SC(=N)NC2=O)sc(C)c1-c1ccccc1 (centres unmarked) [Example 48]
Form field 'greater fold induction at 10 µM' accepts 1 or 2 ; which applies? In your reply, give the label of the chosen option.
2
(2: 1.6, 1: 1.1)
